All values here come from paper PMC4272346.

Molecular target: NS3h (Hepatitis C virus genotype 1b)
Sequence (Q9WMX2 1192-1657): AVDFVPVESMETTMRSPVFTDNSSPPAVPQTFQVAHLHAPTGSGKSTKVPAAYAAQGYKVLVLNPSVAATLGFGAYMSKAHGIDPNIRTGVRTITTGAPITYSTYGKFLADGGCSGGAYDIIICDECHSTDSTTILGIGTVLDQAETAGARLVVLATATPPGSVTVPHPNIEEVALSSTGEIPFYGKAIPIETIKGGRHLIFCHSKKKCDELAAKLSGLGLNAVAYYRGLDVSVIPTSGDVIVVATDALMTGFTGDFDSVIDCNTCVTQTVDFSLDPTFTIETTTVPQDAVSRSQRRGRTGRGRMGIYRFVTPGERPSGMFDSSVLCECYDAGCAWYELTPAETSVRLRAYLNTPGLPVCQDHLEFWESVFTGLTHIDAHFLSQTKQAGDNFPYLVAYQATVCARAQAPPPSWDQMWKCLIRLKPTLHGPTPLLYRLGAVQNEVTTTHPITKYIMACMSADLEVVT
REPORTED ENDPOINT: Kd
Give the value; after it, write the unit.

Qu. State its Kd for this molecule: O=C(O)C1=CC(=C(c2ccc(O)c(C(=O)O)c2)c2ccc(O)c(C(=O)O)c2)C=CC1=O
Ans. 1.3 µM
